Ref: the supplement of paper PMC7411054

In this section, each of the compounds is paired with its reported lowest phenotypically active concentration.
- System: HepG2-TUBA1B-RELA
- MEASUREMENT NOTES: lowest phenotypically active concentration; higher = less potent
- EXPERIMENTAL CONTEXT: treatment time: 24 h
Counter-ions that a name gives are not always drawn.
RECORDED ENDPOINT: lowest phenotypically active concentration

In [3]: df
Out[3]:
                                   compound        test_system  observed
0  Cc1ccc(C(=O)N(CCCN)[C@@H](c2nc3cc(Cl)ccc3c(=O)n2Cc2ccccc2)C(C)C)cc1  HepG2-TUBA1B-RELA  ≤ 0.3 µM
1  COc1ccc(C[C@H](N)C(=O)N[C@H]2[C@@H](O)[C@H](n3cnc4c(N(C)C)ncnc43)O[C@@H]2CO)cc1 [Puromycin dihydrochloride]  HepG2-TUBA1B-RELA  ≤ 0.3 µM
2  C[C@@H](Oc1cc(-n2cnc3ccc(CN4CCN(C)CC4)cc32)sc1C(N)=O)c1ccccc1C(F)(F)F  HepG2-TUBA1B-RELA  ≤ 0.3 µM

* * *

Reported phenotypically active is given for each of the following compounds.
- Test system: HepG2-ACTB-RAB5A
- MEASUREMENT NOTES: phenotypically active (imaging signature differs from DMSO and reproducible) at any of 0.3-9 uM (binary (1 = active, 0 = inactive)); higher = active
- EXPERIMENTAL CONTEXT: treatment time: 24 h
Counter-ions that a name gives are not always drawn.
RECORDED ENDPOINT: phenotypically active

>>> df
                                   compound      observed
0  COc1ccc(S(=O)(=O)Nc2cccnc2Nc2ccc(O)cc2)cc1    1 (active)
1  CC1(C)[C@@H](O)CC[C@]2(C)[C@H]3C(=O)C=C4[C@@H]5C[C@@](C)(C(=O)O)CC[C@]5(C)CC[C@@]4(C)[C@]3(C)CC[C@@H]12  0 (inactive)
2  C=CCc1ccccc1OC[C@@H](O)CNC(C)C [Alprenolol hydrochloride]  0 (inactive)
3             NC(=O)c1cccnc1 [Nicotinamide]  0 (inactive)
4  CC(CN(C)C)CN1c2ccccc2CCc2ccccc21 (stereo not given)    1 (active)
5  CN1C(=O)CC(c2ccccc2)C1=O (stereo not given) [phensuximide]  0 (inactive)
6  Cc1cc2c(F)c(Oc3ncnn4cc(OC[C@@H](C)OC(=O)[C@H](C)N)c(C)c34)ccc2[nH]1 [brivanib-alaninate]    1 (active)
7  O=C1NCCCC1C(=O)NCCc1c[nH]c2ccc(O)cc12 (stereo not given)  0 (inactive)
8   CCCCCCCCCCCCc1ccc(S(=O)(=O)Nc2nncs2)cc1  0 (inactive)
9  NC(=O)C(c1ccccc1)(c1ccc(F)cc1)c1ccc(F)cc1  0 (inactive)

* * *

# reported phenotypically active; entries follow
- Test system: WPMY1-ACTB-RAB5A
- MEASUREMENT NOTES: phenotypically active (imaging signature differs from DMSO and reproducible) at any of 0.3-9 uM (binary (1 = active, 0 = inactive)); higher = active
- EXPERIMENTAL CONTEXT: treatment time: 24 h
Counter-ions that a name gives are not always drawn.
RECORDED ENDPOINT: phenotypically active

>>> df
                                   compound  observed
0  O=C1c2c(O)ccc(O)c2C(=O)c2c(NCCNCCO)ccc(NCCNCCO)c21         1
1  C=CC(=O)Nc1cccc(CN2C(=O)N(c3c(Cl)c(OC)cc(OC)c3Cl)Cc3cnc(NCCCCN(CC)CC)nc32)c1 [FIIN 1 hydrochloride]         1
2  CC(C)[C@](O)(c1ccc2cc(OC(F)F)c(OC(F)F)cc2c1)c1c[nH]nn1         0
